# System: OVCAR-5 ovarian
# METHOD_NOTES: NCI tumour cell line growth inhibition, 48 h
Task for the reader: assign each of the following compounds its reported TGI.

// solved cases for TGI follow
Cc1cc(C)c2c(=O)cc(-c3cccc(F)c3)[nH]c2n1    > 100 µM
O=C1C(c2ccccc2)=[N+]([O-])c2ccccc21    43.1 µM
O=C1NC(=S)S/C1=C(/C=C(\CC(=O)c1ccccc1)c1ccc(Cl)cc1)c1ccccc1    > 100 µM

Provide each entry's TGI from the list below.
1. Cn1c2c(c3ccc(Cl)c(Cl)c31)C(C#N)C1(CCNCC1)NC2=O (stereo not given)
2. O=P(O)(O)c1ccccc1Oc1ccccc1
3. C=C1C(=O)O[C@H]2[C@H]1CC/C(COC(=O)c1cc3cc(Cl)ccc3[nH]1)=C\CC[C@@]1(C)O[C@@H]21
4. CCCCCCCCCCCCCCCCCC1=NCCN1C(=O)OCCO

### Response
1: 4.68 µM; 2: > 100 µM; 3: 3.28 µM; 4: 26.4 µM

Provide each entry's TGI from the list below.
1. COc1cc2cc(C(=O)N3C[C@H](CCl)c4c3cc(N)c3ccccc43)[nH]c2c(OC)c1OC
2. CCn1c2ccc(O)cc2c2c(C)c3c[n+](C)ccc3c(C)c21

### Response
["0.552 µM", "> 100 µM"]

Lab note: CC(C)(C)OC(=O)NC(Cc1ccccc1)NC(=O)NC(=O)OCc1ccccc1 (stereo not given) gave TGI of > 100 µM

###

# Test system: T-47D breast
# METHOD_NOTES: NCI tumour cell line growth inhibition, 48 h
MEASURED_QUANTITY: GI50

// solved cases for GI50 follow
COc1ccccc1/C=C/C(=O)c1ccccc1    16.8 µM
Fc1cc2[nH]ncc2c2c3c(c(-c4cn[nH]c4C(F)(F)F)nc12)C1CCC3C1 (centres undefined)    0.85 µM
CCOC(=O)/C=C/C1=C(c2cccs2)c2ccccc2CC1    36.5 µM

Would you kindly look at the next entry?
Lab note: "CN(C)CCCNC(=O)c1ccc2c(c1)oc1cc3ccccc3c(=O)n12" gave GI50 of 11.5 µM

###

# System: OVCAR-4 ovarian
# METHOD_NOTES: NCI tumour cell line growth inhibition, 48 h
Task for the reader: assign each of the following molecules its reported GI50.

CCn1c(-c2nonc2N)nc2c(C#CC(C)(C)O)nc(OCCNC)cc21    9.89 µM
COc1cc(/C=C2\C(=O)Nc3ccc(N(C)C)cc32)cc(OC)c1OC    3.7 µM
COc1ccc(-c2ccc(-c3ccc(C(=N)N)cn3)o2)cc1    10.4 µM
Cc1cc(S(=O)(=O)NC#N)c(S/C(=N\Nc2ccc([N+](=O)[O-])cc2)c2ccc(Cl)cc2)cc1Cl    20.9 µM

Would you kindly look at the next entry?
Lab note: "Cc1cc2c(cc1C)N(C(=O)CCl)CCN2C(=O)CCl" gave GI50 of 1.44 µM

###

# System: SF-539 CNS
# METHOD_NOTES: NCI tumour cell line growth inhibition, 48 h; in the data active = GI50 below about 0.43 µM; inactive = the rest
Your answer must be one of the following: true for active, false for inactive

Before answering, review these 4 worked examples.
O=C1c2cc(Cl)ccc2-c2c1c1ccc([N+](=O)[O-])cc1c(=O)n2CCCBr    false
Cc1sc2nc3c4ccccc4c(NCCCN(C)C)nn3c(=O)c2c1C    false
COC(=O)C1CCc2sc3ncnc(Nc4cn[nH]c4C(=O)Nc4ccc(CN5CCN(C)CC5)cc4)c3c21 (stereo not given)    true
Cc1cc(S(=O)(=O)NC#N)c(S/C(=N\Nc2ccc([N+](=O)[O-])cc2)c2ccc(Cl)cc2)cc1Cl    false

We next turn to a different molecule, shown below.
### Prompt Please state the recorded outcome for this molecule: "COc1ccc(-c2ccc(-c3ccc(C(=N)N)cn3)o2)cc1"
### Response false
